System: PANC-1 complex spheroid growth, percent test/control
ASSAY_COMMENT: Anticancer human tumor PANC-1 cell line growth inhibition [Asc];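 also: spheroids exposed to agents for 7 days; percent viability relative to DMSO vehicle wells taken as 100%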
DETAILS: second compound 0.1 µM; first compound 0.00316 µM; stronger effect = lower value
MEASURED_METRIC: viability, T/C (%)
Number in %, nothing else.

Example entries begin here.
{"columns": ["MOLECULE", "MEASURED_METRIC", "UOM", "ASSAY_VALUE"],
 "data": [
  ["NC1CCC(NC2CC2c2ccccc2)CC1 (centres undefined) + Cc1c(S(C)(=O)=O)c(-c2cc(F)cc(N3CCN(c4ccc(NS(=O)(=O)c5ccc(NC(CCN6CCC(C(=O)OCCCP(=O)(O)O)CC6)CSc6ccccc6)c(S(=O)(=O)C(F)(F)F)c5)cc4)CC3)c2)c(-c2ccc(Cl)cc2)n1C(C)C", "viability, T/C", "%", 101],
  ["Cn1ncnc1[C@H]1c2n[nH]c(=O)c3cc(F)cc(c23)N[C@@H]1c1ccc(F)cc1 + CNC(C)C(=O)NC1CN(S(=O)(=O)c2cccc(S(=O)(=O)N3CCC4CCC(C(=O)NC(c5ccccc5)c5ccccc5)N4C(=O)C(NC(=O)C(C)NC)C3)c2)CCC2CCC(C(=O)NC(c3ccccc3)c3ccccc3)N2C1=O", "viability, T/C", "%", 97.3],
  ["NC1CCC(NC2CC2c2ccccc2)CC1 (centres undefined) + CNC(C)C(=O)NC1CN(S(=O)(=O)c2cccc(S(=O)(=O)N3CCC4CCC(C(=O)NC(c5ccccc5)c5ccccc5)N4C(=O)C(NC(=O)C(C)NC)C3)c2)CCC2CCC(C(=O)NC(c3ccccc3)c3ccccc3)N2C1=O", "viability, T/C", "%", 96.5]
]}

Query: For the molecule shown here, COc1c(OCCCN2CCOCC2)ccc2c3n(c(=NC(=O)c4cnc(N)nc4)nc12)CCN3 + CNC(C)C(=O)NC1CN(S(=O)(=O)c2cccc(S(=O)(=O)N3CCC4CCC(C(=O)NC(c5ccccc5)c5ccccc5)N4C(=O)C(NC(=O)C(C)NC)C3)c2)CCC2CCC(C(=O)NC(c3ccccc3)c3ccccc3)N2C1=O , give the reported viability, T/C.
Response: 103

====

System: PANC-1 complex spheroid growth, percent test/control
ASSAY_COMMENT: Anticancer human tumor PANC-1 cell line growth inhibition [Asc];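 also: spheroids exposed to agents for 7 days; percent viability relative to DMSO vehicle wells taken as 100%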
DETAILS: second compound 3 µM; first compound 0.1 µM; stronger effect = lower value
From the text: Multicellular complex tumor spheroid response to apoptosis pathway targeting inhibitors Alrizomadlin, Pelcitoclax, and Dasminapant in combination with a variety of drugs and investigational agents in selected tumor cell lines […] Compounds. […] If the clinical Cmax for an agent had not been determined, the highest concentration tested was 10 microM. […]
MEASURED_METRIC: viability, T/C (%)
Number in %, nothing else.

{"columns": ["COMPOUND", "UOM", "viability, T/C"],
 "data": [
  ["O=C(c1cc(Cc2n[nH]c(=O)c3ccccc23)ccc1F)N1CCN(C(=O)C2CC2)CC1 + CCN1C(C(=O)NC23CCC(C(=O)O)(CC2)CC3)C(c2cccc(Cl)c2F)C2(C(=O)Nc3cc(Cl)ccc32)C12CCCCC2", "%", 117],
  ["CCN1CCN(Cc2ccc(Nc3ncc(F)c(-c4cc(F)c5nc(C)n(C(C)C)c5c4)n3)nc2)CC1 + CCN1C(C(=O)NC23CCC(C(=O)O)(CC2)CC3)C(c2cccc(Cl)c2F)C2(C(=O)Nc3cc(Cl)ccc32)C12CCCCC2", "%", 124],
  ["COc1c(OCCCN2CCOCC2)ccc2c3n(c(=NC(=O)c4cnc(N)nc4)nc12)CCN3 + CCN1C(C(=O)NC23CCC(C(=O)O)(CC2)CC3)C(c2cccc(Cl)c2F)C2(C(=O)Nc3cc(Cl)ccc32)C12CCCCC2", "%", 79.3]
]}

Query: For the compound shown here, C=CC(=O)N1CCN(c2nc(=O)n(-c3c(C)ccnc3C(C)C)c3nc(-c4c(O)cccc4F)c(F)cc23)C(C)C1 (stereo not given) + CCN1C(C(=O)NC23CCC(C(=O)O)(CC2)CC3)C(c2cccc(Cl)c2F)C2(C(=O)Nc3cc(Cl)ccc32)C12CCCCC2 , give the reported viability, T/C.
Response: 115

Query: For the compound shown here, CNC(C)C(=O)NC1CN(S(=O)(=O)c2cccc(S(=O)(=O)N3CCC4CCC(C(=O)NC(c5ccccc5)c5ccccc5)N4C(=O)C(NC(=O)C(C)NC)C3)c2)CCC2CCC(C(=O)NC(c3ccccc3)c3ccccc3)N2C1=O (stereo not given) + CCN1C(C(=O)NC23CCC(C(=O)O)(CC2)CC3)C(c2cccc(Cl)c2F)C2(C(=O)Nc3cc(Cl)ccc32)C12CCCCC2 , give the reported viability, T/C.
Response: 103
